Test system: Target C mRNA
ASSAY TEXT: RT-qPCR splicing assay panel, Target C canonical junction (CJ) mRNA
Assay type: cell-based, human
CONDITION PARAMETERS: Homo sapiens, canonical junction (CJ) mRNA, RT-qPCR panel, Table 4A; read-out: Target C, decrease in CJ mRNA levels, IC50
pIC50: −log10 of the molar value.
READOUT: pIC50

Consider the reported pIC50 for these compounds:
* Cn1cc2cc(-c3ccc(-c4ccc(N5CCC(NC6CCC6)C5)nn4)c(O)c3)cc(F)c2n1 (centres unmarked) [Compound 328] | 6.00 to 7.00
* Cc1cc(-c2ccc(-c3ccc(N4CC[C@H](NC5CCC5)C4)nn3)c(O)c2)cnn1 [Compound 291] | < 5.00
* Cc1cc(-c2ccc(-c3ccc(N4CCC(NC5CCC5)C4)nn3)c(O)c2)cc2cn(C)nc12 (centres unmarked) [Compound 318] | 6.00 to 7.00
* Cc1ncc(-c2cc(O)c(-c3ccc(N4CC[C@H](N(C)C5CCC5)C4)nn3)cc2F)s1 [Compound 267] | > 7.00
* Cc1cn(-c2cc(O)c(-c3ccc(N4CC[C@H](NC5CCC5)C4)nn3)cc2F)cn1 [Compound 227] | 6.00 to 7.00
* COc1cc(-c2ccc(-c3ccc(N4CC[C@H](NC5(C)CCC5)C4)nn3)c(O)c2)ncn1 [Compound 384] | 6.00 to 7.00
* COc1nccc(-c2ccc(-c3ccc(N4CCC(NCC5CC5)C4)nn3)c(O)c2)n1 (centres unmarked) [Compound 368] | 5.00 to 6.00

Incoming: Quick one: pIC50 for Oc1cc(-c2cn[nH]c2)ccc1-c1ccc(N2CCN[C@@H](C3CC3)C2)nn1 [Compound 263] ?
Outgoing: 6.00 to 7.00

---

Here the recorded pIC50 is given for each entry.
System: HTT mRNA
ASSAY TEXT: RT-qPCR splicing assay, HTT canonical (CJ) and alternative (AJ) junction mRNA
Assay type: cell-based, human
CONDITION PARAMETERS: Homo sapiens, 24 h, Table 3A; A673 or K562 cells, 24 h treatment; read-out: HTT CJ (IC50, decrease in CJ mRNA)
pIC50: −log10 of the molar value.

Incoming: Quick one: pIC50 for Cc1ncc(-c2cc(O)c(-c3ccc(N4CC[C@](C)(NCC5CC5)C4)nn3)cc2F)s1 (single isomer, unassigned) [Compound 400] ?
Outgoing: > 7.00

Incoming: Subsequent entry: Cc1ncc(-c2cc(O)c(-c3ccc(N4CCC(NC5CCCC5)C4)nn3)cc2F)s1 (stereo not drawn) [Compound 391]
Outgoing: > 7.00

Incoming: Subsequent entry: CNc1cc(-c2ccc(-c3ccc(N4CC[C@@H](NC(C)(C)C)C4)nn3)c(O)c2)ncn1 [Compound 437]
Outgoing: > 7.00

Incoming: Subsequent entry: COc1cc(-c2ccc(-c3ccc(N4CC[C@@H](NC5CCC5)C4)nn3)c(O)c2)cnn1 [Compound 264]
Outgoing: > 7.00

Incoming: Subsequent entry: CCc1cc(-c2ccc(-c3ccc(N4CC[C@@H](NC5CCC5)C4)nn3)c(O)c2)cnn1 [Compound 277]
Outgoing: 5.00 to 6.00

Incoming: Subsequent entry: COc1cc(-c2cc(O)c(-c3ccc(N4CC[C@](C)(NC5CCC5)C4)nn3)cc2F)cnn1 (single isomer, unassigned) [Compound 309]
Outgoing: > 7.00

Incoming: Subsequent entry: Oc1cc(-c2cnnc(C3CC3)c2)ccc1-c1ccc(N2CC[C@H](NC3CCC3)C2)nn1 [Compound 280]
Outgoing: 5.00 to 6.00

Incoming: Subsequent entry: Cc1ncc(-c2cc(O)c(-c3ccc(N4CC[C@@H](N[C@@H](C)C5CC5)C4)nn3)cc2F)s1 [Compound 373]
Outgoing: > 7.00

Incoming: Subsequent entry: Oc1cc(-c2cnn3c2CCC3)c(F)cc1-c1ccc(N2CCC(NC3CCC3)C2)nn1 (stereo not drawn) [Compound 443]
Outgoing: 5.00 to 6.00

Incoming: Subsequent entry: Cc1ccc(-c2ccc(-c3ccc(N4CC[C@H](NC5CCC5)C4)nn3)c(O)c2)cn1 [Compound 281]
Outgoing: 6.00 to 7.00

Incoming: Subsequent entry: Cc1nc2c(F)cc(-c3ccc(-c4ccc(N5CCC(NC6CCC6)C5)nn4)c(O)c3)cc2o1 (stereo not drawn) [Compound 326]
Outgoing: > 7.00

Incoming: Subsequent entry: COc1cc(-c2ccc(-c3ccc(N4CC[C@H](N(CCF)C5CCC5)C4)nn3)c(O)c2)cnn1 [Compound 303]
Outgoing: 6.00 to 7.00

---

Tested on: Target C mRNA
ASSAY TEXT: RT-qPCR splicing assay panel, Target C canonical junction (CJ) mRNA
Type: cell-based, human
CONDITION PARAMETERS: Homo sapiens, canonical junction (CJ) mRNA, RT-qPCR panel, Table 4A; read-out: Target C, decrease in CJ mRNA levels, IC50
pIC50: −log10 of the molar value.
READOUT: pIC50

Consider the reported pIC50 for these molecules:
• COc1cncc(-c2cc(O)c(-c3ccc(N4CC[C@H](NC5CCC5)C4)nn3)cc2F)c1 = < 5.00
• Cc1ncc(-c2cc(O)c(-c3ccc(N4CC[C@@H](NC5CCC5)C4)nn3)cc2F)o1 = 6.00 to 7.00
• Cc1ncc(-c2cc(O)c(-c3ccc(N4CC[C@](C)(NCC5CC5)C4)nn3)cc2F)s1 (single isomer, unassigned) = > 7.00
• CC(=O)c1cc(-c2ccc(-c3ccc(N4CCC(NC5CCC5)C4)nn3)c(O)c2)cnn1 (stereo not shown) = < 5.00
• COc1cc(-c2cc(O)c(-c3ccc(N4CC[C@](C)(NCC5CC5)C4)nn3)cc2F)cnn1 = 6.00 to 7.00
• Oc1cc(-c2ccc(-c3ccc(N4CC[C@@H](NC5CCC5)C4)nn3)c(O)c2)cnn1 = 5.00 to 6.00

Now for another entry.
Incoming: Hello, I am looking for reported pIC50 with Target C mRNA for COc1cc(-c2ccc(-c3ccc(N4CC[C@@H](NC5CC5)C4)nn3)c(O)c2)cnn1 . Could you help?
Outgoing: 6.00 to 7.00

---

System: Target C mRNA
ASSAY TEXT: RT-qPCR splicing assay panel, Target C canonical junction (CJ) mRNA
Type: cell-based, human
CONDITION PARAMETERS: Homo sapiens, canonical junction (CJ) mRNA, RT-qPCR panel, Table 4A; read-out: Target C, decrease in CJ mRNA levels, IC50
Here the recorded IC50 is given for each entry.

• COc1cc(-c2ccc(-c3ccc(N4CC[C@@H](N[C@H]5C[C@@H](F)C5)C4)nn3)c(O)c2)ncn1 = 100 to 1000 nM
• Oc1cc(-c2ccc(-c3ccc(N4CC[C@H](NC5CCC5)C4)nn3)c(O)c2)cnn1 = 1000 to 10000 nM

Incoming: Quick one: IC50 for Cc1ccc(-c2ccc(-c3ccc(N4CCC(NC5CCC5)C4)nn3)c(O)c2)o1 (centres unmarked) ?
Outgoing: 1000 to 10000 nM

Incoming: Subsequent entry: Oc1cc(-c2cnn3c2CCC3)c(F)cc1-c1ccc(N2CCC(NC3CCC3)C2)nn1 (centres unmarked)
Outgoing: > 10000 nM

Incoming: Subsequent entry: COc1cc(-c2cc(O)c(-c3ccc(N4CCC(C)(NC(C)C)C4)nn3)cc2F)cnn1 (centres unmarked)
Outgoing: 100 to 1000 nM

Incoming: Subsequent entry: Cc1ncc(-c2ccc(-c3ccc(N4CC[C@@H](NCC5CC5)C4)nn3)c(O)c2)s1
Outgoing: < 100 nM

Incoming: Subsequent entry: CCOc1cc(-c2ccc(-c3ccc(N4CCC(NCC5CC5)C4)nn3)c(O)c2)ncn1 (centres unmarked)
Outgoing: > 10000 nM

Incoming: Subsequent entry: Cc1ncc(-c2cc(O)c(-c3ccc(N4CCC(NC5CCOC5)C4)nn3)cc2F)s1 (centres unmarked)
Outgoing: < 100 nM

---

Test system: SMN2 mRNA
ASSAY TEXT: RT-qPCR splicing assay panel, SMN2 canonical junction (CJ) mRNA
Type: cell-based, human
CONDITION PARAMETERS: Homo sapiens, canonical junction (CJ) mRNA, RT-qPCR panel, Table 4A; read-out: SMN2, decrease in CJ mRNA levels, IC50
pIC50: −log10 of the molar value.
READOUT: pIC50

Incoming: Quick one: pIC50 for CN(C1CCC1)[C@@H]1CCN(c2ccc(-c3ccc(-c4cn[nH]c4)cc3O)nn2)C1 ?
Outgoing: > 7.00

Incoming: Subsequent entry: CC1(NC2CCN(c3ccc(-c4ccc(-c5cn[nH]c5)cc4O)nn3)C2)CC1 (stereo not shown)
Outgoing: > 7.00

Incoming: Subsequent entry: COc1cc(-c2cc(O)c(-c3ccc(N4CC[C@H](NC(C)(C)C)C4)nn3)cc2F)cnn1
Outgoing: > 7.00

Incoming: Subsequent entry: COc1cc(-c2ccc(-c3cc(C#N)c(OC4CC(C)(C)NC(C)(C)C4)nn3)c(O)c2)cnn1
Outgoing: 6.00 to 7.00
